# Tested on: TK-10
# test_summary: NCI tumour cell line growth inhibition, 48 h
Activity calls are given as the source filed them. Cut-off read from the data, not from the text of the source: active = GI50 up to about 1.1 µM and inactive = higher.
Pick from class 1 (active), class 0 (inactive) when you respond.

The examples below pair each entry with its known result.
Hi, sorry to bother you, what did the test record for N#Cc1c(-c2ccc(Cl)cc2)cc(-c2nc3ccccc3[nH]2)nc1N ?
class 0

Record: OCC(O)C(OC1OC(CO)C(O)C(O)C1O)c1nn(-c2ccc(Cl)cc2)c2nc3cc(Cl)ccc3nc12 (stereo not drawn)
class 0

Can you handle COCC1OC(OC2C3=C(C(C)C)CCC3(C)/C=C3\C(CCC3(O)COC)C(C)C2O)C(O)C2OC3OC12OC3(C)C1CO1 (stereo not drawn) next?
class 0

Again, but for O=C1OC[C@@H]2Cc3c([nH]c4ccccc34)[C@@H](c3cc(O)c(O)c(O)c3)N12
class 0

// repeat for O=c1c(O)c(-c2ccc(O)c(O)c2)oc2cc(O)ccc12 and report
class 0

What would you report for CSC(=S)Nc1cc(C)ccn1 ?
class 0

Field entry: CC(=O)OC(C)(C)/C=C/C(=O)[C@](C)(O)[C@H]1[C@H](O)C[C@@]2(C)[C@@H]3CC=C4[C@@H](C=C(O)C(=O)C4(C)C)[C@]3(C)C(=O)C[C@]12C
class 1

Next:
What classification did Cn1c(=O)n(C2(C)C[Se]C2)c2ccccc21 end up with in this test?
class 0

----------
Give measured GI50 for each item. Keep answers brief.
# System: PC-3
# test_summary: NCI tumour cell line growth inhibition, 48 h
Activity calls are given as the source filed them. Rule as the data show it: active = GI50 up to about 1.1 µM and inactive = higher. Non-standard residues stand in square brackets, D forms with d. Residues, ends and D or L forms follow the SMILES beside them. *: point of attachment. Ac5c = NC1(C(=O)O)CCCC1; Cbz = O=C(OCc1ccccc1)*; Boc = CC(C)(C)OC(=O)*; tBu = CC(C)(C)*

Respectfully, I request GI50 for each entry included below.
1. COC(=O)[C@H]1C[C@H]1NC(=O)C(CC(=O)OCc1ccccc1)NC(=O)OCc1ccccc1 (stereo partly drawn)
2. Cc1ccc(-c2cs/c(=N\c3ccccc3)n2NC(=O)c2ccncc2)cc1

1. 35.3 µM (inactive)
2. 27.4 µM (inactive)

Lookup: GI50 / PC-3 / COC(=O)C1(NC(=O)C(Cc2ccccc2)NC(=O)C(NC(=O)C(CCCCNC(=O)OC(C)(C)C)NC(=O)C(Cc2c[nH]c3ccccc23)NC(=O)C(Cc2ccccc2)NC(=O)OCc2ccccc2)C(C)OC(C)(C)C)CCCC1 (stereo not drawn) (Cbz-FWK(Boc)T(tBu)F[Ac5c]-OMe; configuration not given here)
> 100 µM (inactive)

----------
Assignment: determine reported GI50 for the given compounds.
# Test system: MDA-N
# test_summary: NCI tumour cell line growth inhibition, 48 h
Calls of active or inactive are those of the source. Rule as the data show it: active = GI50 up to about 1.1 µM and inactive = higher.

Completed entries (count: 5):
Reported GI50 for MDA-N, given Cc1ccc(S(=O)(=O)N2CCCN(S(=O)(=O)c3ccc(C)cc3)CC2)cc1 ?
> 100 µM (inactive)

Would you mind doing COc1cc(Nc2n[nH]c(NS(=O)(=O)c3cc(C)c(Cl)cc3S)n2)cc(OC)c1OC as well?
> 100 µM (inactive)

Repeat for the following compound: Cn1c(=O)c2c(ncn2Cc2ccc(O)c([N+](=O)[O-])c2)n(C)c1=O
> 100 µM (inactive)

Next: COc1ccc2nc3c([N+](=O)[O-])ccc4c3c(c2c1)N=CN4CCCN(C)C
4.62 µM (inactive)

And then CC1CC[C@@]2(OC1)OC1C[C@H]3[C@@H]4CC[C@H]5CC(OC6OC(CO)C(OC7OC(CO)C(O)C(O)C7O)C(O)C6O)CCC5(C)[C@H]4CCC3(C)C1[C@@H]2C (stereo partly specified) , what is it?
8.2 µM (inactive)

Please find the next compound below.
Request body: readout GI50, system MDA-N, query COC(=O)C(=O)C(C(=O)C(=O)Nc1cccc(OC)c1)c1nc2ccc(Cl)cc2nc1O (stereo unspecified) . Return the value.
> 100 µM (inactive)
